Target: T1, CD3 on primary human pan T cells (human, UniProt P07766 23-207)
T1 construct: on cells it stands in the TCR/CD3 complex; also called Pan T-cells (CD3-positive); endogenous CD3
T1 sequence (P07766 23-207 limits assumed): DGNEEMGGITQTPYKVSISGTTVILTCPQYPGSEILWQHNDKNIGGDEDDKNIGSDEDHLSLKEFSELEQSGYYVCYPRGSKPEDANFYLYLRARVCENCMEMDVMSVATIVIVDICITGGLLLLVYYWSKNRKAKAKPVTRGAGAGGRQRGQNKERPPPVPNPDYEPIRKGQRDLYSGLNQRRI
Experiment: flow cytometry, pan T-cells
property name: % Binding retained on T-cells, 55° C. (fraction)
Quick note: give the figure in fraction, leave out the unit.

Problem: Which value of % Binding retained on T-cells, 55° C. has been reported for CD3B2035 (scFv) scFv: QVQLVQSGAEVKKPGSSVKVSCKASGYTFTRSTMHWVKQAPGQGLEWMGYINPSSAYTNYNQKFQGRVTLTADKSTSTAYMELSSLRSEDTAVYYCASPQVHYDYNGFPYWGQGTLVTVSSGGSEGKSSGSGSESKSTGGSEIVLTQSPATLSASPGERVTLSCSASSSVSYMNWYQQKPGQAPRRWIYDSSKLASGVPARFSGSGSGRDYTLTISSLEPEDFAVYYCQQWSRNPPTFGGGTKVEIK in the records?
Solution: 1.06
